B1: NEUROD6 (parent)
chain: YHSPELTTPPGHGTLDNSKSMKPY

Variants of: B1
Experiment: protein stability index of a GFP-peptide fusion (GPS, HEK-293T) (PSI 1-6); higher = more stable;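 note: lentivirally expressed fusions sorted by FACS into six bins by GFP to DsRed ratio, PSI derived from sequencing read proportions per bin multiplied by bin number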
Settings: c terminus: a fixed tail appended
metric: protein stability index
Format: numeric value only, no unit, no commentary.

Please review the entries below; each comes with its answer.
M21I | 2.84
G11T | 2.08
Y1G | 4.91

[ask] Which protein stability index value belongs to `Y1P` ?
[reply] 4.37

[ask] Proceed to `T14Y`
[reply] 1.77

[ask] Follow-up entry: `K19L`
[reply] 1.96

[ask] What about `K22E` ?
[reply] 2.46

[ask] Also `M21R` ?
[reply] 2.23

[ask] What would you report for `L6N` ?
[reply] 3.25

[ask] Same lookup for `K22Q` , please.
[reply] 2.15

[ask] `Y24C` , same question.
[reply] 2.38

[ask] Same read-out for `P10R` ?
[reply] 2.3

[ask] Request: `K22V`
[reply] 2.06
